We begin with a simple list: items and their reported cell viability.
# Test system: P12-Ichikawa
# test_method_notes: cell viability relative to DMSO control; higher = less cytotoxic
# assay_setup: RPMI 5 mM glucose + 10% FBS; 48 h; 0.0211 µM

compound: O=[N+]([O-])c1cn2c(n1)OC[C@@H](OCc1ccc(OC(F)(F)F)cc1)C2
target_desc: P12-Ichikawa
cell viability / %: 141
--
compound: Cc1cc2c(C(C)C)c(O)c(O)c(C=O)c2c(O)c1-c1c(C)cc2c(C(C)C)c(O)c(O)c(C=O)c2c1O
target_desc: P12-Ichikawa
cell viability / %: 121
--
compound: COc1cc(N2CCC(C(N)=O)CC2)ccc1Nc1nc(N)c(Cl)c(Nc2ccccc2[S+](=O)([O-])C(C)C)n1
target_desc: P12-Ichikawa
cell viability / %: 107
--
compound: O=C1\C=C(/OC2=C1C=CC=C2C3=CC=CC=C3)N4CCOCC4
target_desc: P12-Ichikawa
cell viability / %: 89.8
--
compound: O=C/1\C=C(/OC(=C1)/C2=C3SC4=C(SC3=CC=C2)C=CC=C4)N5CCOCC5
target_desc: P12-Ichikawa
cell viability / %: 11.2
--
compound: Clc1cccc(-c2nnnn2Cc2cccnc2)c1Cl
target_desc: P12-Ichikawa
cell viability / %: 91.1
--
compound: O=C1CSC(=O)N1C(CCc1ccncc1)COc1ccc(-c2cccc([N+](=O)[O-])c2)cc1 (stereo not drawn)
target_desc: P12-Ichikawa
cell viability / %: 107
--
compound: Cc1nc(Nc2ncc(C(=O)Nc3c(C)cccc3Cl)s2)cc(N2CCN(CCO)CC2)n1
target_desc: P12-Ichikawa
cell viability / %: 108
